All values here come from paper PMC4072508.

Target: Bcl-xL, Q07817
Sequence (Q07817 1-209): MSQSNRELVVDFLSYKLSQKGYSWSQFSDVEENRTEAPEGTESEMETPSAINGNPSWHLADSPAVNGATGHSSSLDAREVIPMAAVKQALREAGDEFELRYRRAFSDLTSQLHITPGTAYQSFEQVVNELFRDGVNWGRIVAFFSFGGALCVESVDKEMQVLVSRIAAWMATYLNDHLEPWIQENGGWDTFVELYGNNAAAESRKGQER
Assay: peptide SPOT array, c-Myc-tagged receptor at 1 uM or 100 nM, anti-c-Myc-Cy3
readout-label: SPOT signal as a fraction of Bim BH3's signal on the same receptor and array
Give bare numbers.

Examples with answers:
binder | result
HNQLTTVPERLSNCSRSLKNLILKNN [TLR7] | 0.29
LHNLVKAAQSLDEMSQTITDLLSEQK [RB1CC1] | 0.03
QRLINLVGESDRLLGNTFVALSDLRC [BAT3] | 0.08
GSGLHGWAFTDKQFAEMYVAKFAAKG [EEF2] | 0.12
ADAIRPRCVELRHLLDDFINGNKKKW [MCF2L2] | 0.56
LNELYQRAKKLSKAGDNIPEEQPVAS [TMX2] | 0.13

Lab note: next binder to report on.
// RAELTGLARRLADRARELQETNLRAV [RIMBP3C] : SPOT signal as a fraction of Bim BH3's signal on the same receptor and array value = 0.22
